Target: human PDE2A1 (Homo sapiens, UniProt O00408)
Construct: GST; purchased BPS Bioscience (San Diego, Calif.) 60020; host or cells: insect cells
Sequence (O00408 1-920 isoform O00408-2): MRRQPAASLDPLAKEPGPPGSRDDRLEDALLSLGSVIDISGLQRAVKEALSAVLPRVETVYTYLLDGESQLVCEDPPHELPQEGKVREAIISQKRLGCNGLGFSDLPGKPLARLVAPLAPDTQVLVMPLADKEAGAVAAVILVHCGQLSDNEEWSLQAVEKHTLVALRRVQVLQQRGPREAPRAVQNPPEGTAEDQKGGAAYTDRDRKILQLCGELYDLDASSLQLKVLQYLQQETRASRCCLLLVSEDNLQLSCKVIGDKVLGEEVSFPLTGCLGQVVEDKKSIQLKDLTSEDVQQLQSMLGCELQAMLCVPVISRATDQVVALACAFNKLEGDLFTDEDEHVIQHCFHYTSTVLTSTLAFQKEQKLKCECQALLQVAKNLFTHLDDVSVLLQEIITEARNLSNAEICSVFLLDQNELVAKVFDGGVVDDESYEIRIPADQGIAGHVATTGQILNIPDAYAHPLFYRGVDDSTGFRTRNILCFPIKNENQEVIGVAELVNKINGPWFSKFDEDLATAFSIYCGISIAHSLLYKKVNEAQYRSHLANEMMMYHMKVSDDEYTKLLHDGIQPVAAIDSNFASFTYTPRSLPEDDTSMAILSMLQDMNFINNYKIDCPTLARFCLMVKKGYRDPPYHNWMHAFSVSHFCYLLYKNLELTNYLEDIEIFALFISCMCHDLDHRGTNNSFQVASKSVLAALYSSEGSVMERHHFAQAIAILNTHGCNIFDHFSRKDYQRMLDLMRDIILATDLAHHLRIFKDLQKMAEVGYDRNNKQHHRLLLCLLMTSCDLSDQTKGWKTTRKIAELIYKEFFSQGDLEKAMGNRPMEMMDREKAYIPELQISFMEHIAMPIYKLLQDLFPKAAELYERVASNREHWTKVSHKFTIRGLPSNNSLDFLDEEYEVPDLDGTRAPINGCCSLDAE
Experiment: IMAP FP PDE selectivity panel, human PDE2A1
Assay type: biochemical
Settings: Lab B; read-out: Human PDE2 Ki (nM) Lab B
Procedure: Selectivity for PDE2, as compared to other PDE families, was assessed using the IMAP® technology. Human PDE10A2 enzyme was prepared from cytosolic fractions of transiently transfected HEK cells. Assays for PDE 1 through 11 were performed in parallel at room temperature in 384-well microtiter plates with an incubation volume of 20.2 μL. […] The intrinsic PDE2 inhibitory activity of a compound which may be used in accordance with the present invention may be determined by these assays.
measurement name: Ki (nM)

Previously resolved entries follow.
Input Cc1cc(N(C)C(c2ccc(OC(F)(F)F)c(F)c2)C(C)(C)O)n2ncnc2n1 (single isomer, unassigned) [Example 247] . Output Ki: 24

Input Cc1cc(N[C@@H](c2ccc(C(F)(F)F)cc2)C(C)(C)O)n2ncnc2c1 [Example 265] . Output Ki: 82

Input Cc1cc(NC2(c3ccc(SC(F)(F)F)cc3)CC2)n2ncnc2n1 [Example 59] . Output Ki: 72

Input CCC(O)(CC)C(Nc1cc(C(F)(F)F)nc2ncnn12)c1ccc(C(F)(F)F)c(F)c1 (single isomer, unassigned) [Example 219] . Output Ki: 252

Input CC(C)(O)C(Nc1cc(C(F)(F)F)nc2ncnn12)c1ccc(OC(F)F)cc1 (single isomer, unassigned) [Example 165] . Output Ki: 52

[a] Cc1cc(N[C@@H](c2ccc(C(F)(F)F)c(F)c2)C(C)(C)C)n2nc(C)nc2n1 [Example 202]
[b] Cc1nc2ncnn2c(NC2(c3ccc(C(F)(F)F)c(F)c3)CC2)c1C [Example 87]
[c] Cc1cc(O[C@@H](c2ccc(C(F)(F)F)cc2)C(C)(C)C)n2ncnc2n1 (single isomer, unassigned) [Example 260]
[d] Cc1cc(N[C@H](c2ccc(OC(F)(F)F)c(Cl)c2)C(C)(C)O)n2ncnc2n1 [Example 103]
Hey, quick one: sort these by Ki, low to high? Sort and list the labels as requested.
c, d, a, b
